The reported numbers originate from paper PMC12118597.

# Target under test: SARS-CoV-2 NSP3 macrodomain (Mac1) (Severe acute respiratory syndrome coronavirus 2)
# Type: binding
# Reported conditions: ligand conformations modeled in the crystal structure
Reported property: Total number of conformations
Give bare numbers.

See these solved cases before continuing.
Molecule	Reported property	Measured
OCC(Nc1ncnc2[nH]ccc12)C1CC1 (stereo not drawn)	Total number of conformations	1
OCC(Cc1cccs1)Nc1ncnc2[nH]ccc12 (stereo not drawn)	Total number of conformations	1
OCC(Nc1ncnc2[nH]ccc12)C1CCCC1 (stereo not drawn)	Total number of conformations	1

Go through the items and report each one's Total number of conformations.
1. OCC(CC1CCOC1)Nc1ncnc2[nH]ccc12 (stereo not drawn)
2. O=C(O)C(F)(F)F.OCC1(Nc2ncnc3[nH]ccc23)CCC1

Reply |
1
2

Ask | Give SARS-CoV-2 NSP3 macrodomain (Mac1) (Severe acute respiratory syndrome coronavirus 2) Total number of conformations for the following molecule: OCC(CC(F)(F)F)Nc1ncnc2[nH]ccc12 (stereo not drawn)
Reply | 1
